Assay: Inhibition of NS5A in HuH7 cell infected HCV genotype 1a H77 assessed as decrease in viral replication after 3 days by luciferase reporter gene assay
Measurement type: pEC50
Lab note: report pEC50 as minus log10 of the concentration in molar units, number only.

Some solved entries appear below for comparison.
COC(=O)N[C@H](C(=O)N1CCC[C@H]1c1nc2cc(F)c([C@H]3CC[C@H](c4cc5[nH]c([C@@H]6CCCN6C(=O)[C@@H](NC(=O)OC)C(C)C)nc5cc4F)N3c3cc(F)c(N4CCC(c5ccccc5)CC4)c(F)c3)cc2[nH]1)C(C)C :: 11.70
COC(=O)N[C@H](C(=O)N1CCC[C@H]1c1nc2cc(F)c([C@H]3CC[C@H](c4cc5[nH]c([C@@H]6CCCN6C(=O)[C@@H](NC(=O)OC)C6CCOCC6)nc5cc4F)N3c3cc(F)c(N4CCC(c5ccc(F)cc5)CC4)c(F)c3)cc2[nH]1)C1CCOCC1 :: 11.52
COC(=O)N[C@H](C(=O)N1CCC[C@H]1c1nc2ccc([C@H]3CC[C@H](c4ccc5nc([C@@H]6CCCN6C(=O)[C@@H](NC(=O)OC)C(C)C)[nH]c5c4)N3c3cc(F)c(N4CCC(c5ccccc5)CC4)c(F)c3)cc2[nH]1)C(C)C :: 11.70

// next item, pEC50 requested
Fill in the blank: the reported pEC50 of "COC(=O)N[C@H](C(=O)N1CCC[C@H]1c1nc2ccc([C@H]3CC[C@H](c4ccc5nc([C@@H]6CCCN6C(=O)[C@@H](NC(=O)OC)C(C)C)[nH]c5c4)N3c3ccc(OC(F)(F)F)cc3)cc2[nH]1)C(C)C" is ____.
10.72

* * *

Assay: Inhibition of NS5A in HuH7 cell infected HCV genotype 1a H77 assessed as decrease in viral replication after 3 days by luciferase reporter gene assay
Measurement type: EC50 (pM)
State just the number; it will be interpreted in pM.

Some solved entries appear below for comparison.
COC(=O)N[C@H](C(=O)N1CCC[C@H]1c1nc2ccc([C@H]3CC[C@H](c4ccc5nc([C@@H]6CCCN6C(=O)[C@@H](NC(=O)OC)C(C)C)[nH]c5c4)N3c3cc(Cl)c(N4CCCCC4)c(Cl)c3)cc2[nH]1)C(C)C :: 5
COC(=O)N[C@H](C(=O)N1CCC[C@H]1c1nc2ccc([C@H]3CC[C@H](c4ccc5nc([C@@H]6CCCN6C(=O)[C@@H](NC(=O)OC)C(C)C)[nH]c5c4)N3c3ccc(F)cc3)cc2[nH]1)C(C)C :: 38

Fill in the blank: the reported EC50 of "COC(=O)N[C@H](C(=O)N1CCC[C@H]1c1nc2ccc([C@H]3CC[C@H](c4ccc5nc([C@@H]6CCCN6C(=O)[C@@H](NC(=O)OC)C(C)C)[nH]c5c4)N3c3ccc(C4CCCCC4)cc3)cc2[nH]1)C(C)C" is ____.
4

Okay, and "COC(=O)N[C@H](C(=O)N1CCC[C@H]1c1nc2cc(F)c([C@H]3CC[C@H](c4cc5[nH]c([C@@H]6CCCN6C(=O)[C@@H](NC(=O)OC)C(C)C)nc5cc4F)N3c3cc(F)c(N4CCC(c5ccc(F)cc5)CC4)c(F)c3)cc2[nH]1)C(C)C" ?
1

* * *

Test: Inhibition of NS5A in HuH7 cell infected HCV genotype 1b Con1 assessed as decrease in viral replication after 3 days by luciferase reporter gene assay
Measurement type: EC50
Give the value; after it, write the unit.

COC(=O)N[C@H](C(=O)N1CCC[C@H]1c1nc2ccc([C@H]3CC[C@H](c4ccc5nc([C@@H]6CCCN6C(=O)[C@@H](NC(=O)OC)C(C)C)[nH]c5c4)N3c3ccc(F)cc3)cc2[nH]1)C(C)C :: 0.025 nM

// next item, EC50 requested
Fill in the blank: the reported EC50 of "COC(=O)N[C@H](C(=O)N1CCC[C@H]1c1nc2cc(F)c([C@H]3CC[C@H](c4cc5[nH]c([C@@H]6CCCN6C(=O)[C@@H](NC(=O)OC)C6CCOCC6)nc5cc4F)N3c3cc(F)c(N4CCC(c5ccc(F)cc5)CC4)c(F)c3)cc2[nH]1)C1CCOCC1" is ____.
0.007 nM
